# Species: Homo sapiens
# experiment.summary: Inhibition of heparin-induced tau K18PL mutant aggregation assessed as soluble tau fragment level at 50 uM after 5 days by SDS-PAGE analysis
assay.metric: inhibition (%)

Consider the following illustrative entries.
CC(C)c1ccc(-n2nc(C(=O)NC3CC3)c3csc(N)c3c2=O)cc1 :: 86
CCOC(=O)c1nn(-c2ccc(OC(F)(F)F)cc2)c(=O)c2c(N)scc12 :: 29
Cc1nn(CC(F)(F)F)c(=O)c2c(N)scc12 :: 78
CCOC(=O)c1nn(-c2ccc(F)cc2)c(=O)c2c(N)scc12 :: 63
Nc1scc2c(-c3ccccc3)nn(CC(F)(F)F)c(=O)c12 :: 82

P = CCOC(=O)c1c(C(=O)c2ccccc2)csc1N
Q = CCOC(=O)c1nn(-c2ccc(C(F)(F)F)cc2)c(=O)c2c(N)scc12
R = O=C(O)c1nn(-c2ccc(F)cc2)c(=O)c2c1CSC2=O
List these items ordered by inhibition, big to small. Answer with the labels in sequence, matching the requested order.
R, Q, P
(R: 87%, Q: 27%, P: 6.5%)
